Origin of the recorded values: paper PMC10257182

# System: non-senescent control A549 cells
# MEASUREMENT DESCRIPTION: Nuclei count senolytic assay, TIS model, non-senescent control cells
# Type: cell-based, human
# SETTINGS: Homo sapiens, A549; log (dose) [M] -5.66; Control cells; mean; read-out: Mean % Cell Survival
Please respond with reported viability at 2.19 µM for every item in the list.
One number for each entry, in %.

Recorded viability at 2.19 µM, per entry:
- MOLECULE: "CO[C@H]1C[C@@H]2CC[C@@H](C)[C@@](O)(O2)C(=O)C(=O)N2CCCC[C@H]2C(=O)O[C@H]([C@H](C)C[C@@H]2CC[C@H](n3cnnn3)[C@H](OC)C2)CC(=O)[C@H](C)/C=C(\\C)[C@@H](O)[C@@H](OC)C(=O)[C@H](C)C[C@H](C)/C=C/C=C/C=C/1C [Zotarolimus, zotarolimus, reference compound]"
  viability at 2.19 µM, %: 84.4
- MOLECULE: "COc1cc(/C=C/C(=O)O[C@H]2CC[C@]34C[C@]35CC[C@]3(C)[C@@H]([C@H](C)CCC=C(C)C)CC[C@@]3(C)[C@@H]5CC[C@H]4C2(C)C)ccc1O"
  viability at 2.19 µM, %: 87.4
- MOLECULE: "CO[C@H]1C[C@H](O[C@H]2CC[C@@]3(C)[C@H](CC[C@@H]4[C@@H]3CC[C@]3(C)[C@@H](C5=CC(=O)OC5)[C@@H](OC(C)=O)C[C@]43O)C2)O[C@@H](C)[C@@H]1O"
  viability at 2.19 µM, %: 1.34
- MOLECULE: "O=c1cc(-c2ccc(O)cc2)oc2cc(O)c(O)c(O)c12"
  viability at 2.19 µM, %: 105
- MOLECULE: "O=c1c(O)c(-c2ccc(O)cc2)oc2c(O)c(O)cc(O)c12"
  viability at 2.19 µM, %: 89.3
- MOLECULE: "COc1cc(O)c2c(=O)cc(-c3ccc(OC)c(-c4c(O)cc(O)c5c(=O)cc(-c6ccc(O)cc6)oc45)c3)oc2c1"
  viability at 2.19 µM, %: 98.7
- MOLECULE: "COC[C@H]1C[C@@H](c2nc(-c3ccc4c(c3)COc3cc5c(ccc6nc([C@@H]7CC[C@H](C)N7C(=O)[C@@H](NC(=O)OC)C(C)C)[nH]c65)cc3-4)c[nH]2)N(C(=O)[C@H](NC(=O)OC)c2ccccc2)C1 [Velpatasvir, velpatasvir, reference compound]"
  viability at 2.19 µM, %: 80.3
- MOLECULE: "Cc1cc2c(C(C)C)c(O)c(O)c(C=O)c2c(O)c1-c1c(C)cc2c(C(C)C)c(O)c(O)c(C=O)c2c1O"
  viability at 2.19 µM, %: 100
- MOLECULE: "Cc1cnc(C(=O)N[C@H]2CCCCC/C=C\\[C@@H]3C[C@@]3(C(=O)NS(=O)(=O)C3CC3)NC(=O)[C@@H]3C[C@@H](Oc4nc5ccccc5c5ccccc45)CN3C2=O)cn1 [Paritaprevir, paritaprevir, reference compound]"
  viability at 2.19 µM, %: 96
- MOLECULE: "CC1(C)CCC(c2ccc(Cl)cc2)=C(CN2CCN(c3ccc(C(=O)NS(=O)(=O)c4ccc(N[C@H](CCN5CCOCC5)CSc5ccccc5)c(S(=O)(=O)C(F)(F)F)c4)cc3)CC2)C1 [navitoclax, reference compound]"
  viability at 2.19 µM, %: 107

# map each molecule to its viability at 2.19 µM
1. O=c1c(O)c(-c2ccc(O)cc2O)oc2cc(O)cc(O)c12
2. CO[C@H]1C[C@@H]2CC[C@@H](C)[C@@](O)(O2)C(=O)C(=O)N2CCCC[C@H]2C(=O)O[C@H]([C@H](C)C[C@@H]2CC[C@@H](O)[C@H](OC)C2)CC(=O)[C@H](C)/C=C(\C)[C@@H](O)[C@@H](OC)C(=O)[C@H](C)C[C@H](C)/C=C/C=C/C=C/1C [Rapamycin, rapamycin, reference compound]
3. CO[C@H]1C[C@@H]2CC[C@@H](C)[C@@](O)(O2)C(=O)C(=O)N2CCCC[C@H]2C(=O)O[C@H]([C@H](C)C[C@@H]2CC[C@@H](OCCO)[C@H](OC)C2)CC(=O)[C@H](C)/C=C(\C)[C@@H](O)[C@@H](OC)C(=O)[C@H](C)C[C@H](C)/C=C/C=C/C=C/1C [Everolimus, everolimus, reference compound]

Reply:
1. 63.6
2. 54
3. 103

###

# Test system: senescent A549 cells (etoposide-induced)
# MEASUREMENT DESCRIPTION: Nuclei count senolytic assay, therapy-induced senescence (TIS) model, senescent cells
# Assay type: cell-based, human
# SETTINGS: log (dose) [M] -6.66; Senescent cells; mean
ASSAY METRIC: Mean % Cell Survival
Give your result as the value with the unit written after it.

- COMPOUND: "CO[C@H]1C[C@H](O[C@H]2CC[C@]3(C)[C@H]4CC[C@]5(C)[C@@H](C6=CC(=O)OC6)CC[C@]5(O)[C@@H]4CC[C@]3(O)C2)O[C@H](C)[C@H]1O[C@@H]1O[C@H](CO)[C@@H](O)[C@H](O)[C@H]1O"
  Mean % Cell Survival: "17.1368%"

# map each compound to its Mean % Cell Survival
1. C=Cc1c(C)c2cc3nc(cc4[nH]c(cc5nc(cc1[nH]2)C(C)=C5CCC(=O)O)c(CCC(=O)OC)c4C)[C@@]1(C)C3=CC=C(C(=O)OC)[C@H]1C(=O)OC [Verteporfin, verteporfin, reference compound]
2. CC(C)=CCc1c(O)cc2oc3cc(O)c(O)c(CC=C(C)C)c3c(=O)c2c1O
3. Cc1c(NC(=O)OC[C@@H]2COCCN2)cn2ncnc(Nc3ccc4c(cnn4Cc4cccc(F)c4)c3)c12.Cl.Cl [BMS 599626 2HCL, BMS 599626 dihydrochloride]

Reply:
1. 107.66%
2. 106.259%
3. 103.929%

###

# Test system: non-senescent control IMR90 ER:RAS cells
# MEASUREMENT DESCRIPTION: Nuclei count (Hoechst, high content imaging) senolytic assay, OIS model, non-senescent control cells
# Type: cell-based, human
# SETTINGS: Homo sapiens, IMR-90, Control; log (dose) [M] -7; read-out: % Cell Survival
ASSAY METRIC: viability at 0.1 µM (%)
Numbers only, in %.

Recorded viability at 0.1 µM, per entry:
- MOLECULE: "O=c1oc2c(O)c(O)cc3c(=O)oc4c(O)c(O)cc1c4c23"
  SYSTEM: "non-senescent control IMR90 ER:RAS cells"
  viability at 0.1 µM, %: 130
- MOLECULE: "Cc1cnc(C(=O)N[C@H]2CCCCC/C=C\\[C@@H]3C[C@@]3(C(=O)NS(=O)(=O)C3CC3)NC(=O)[C@@H]3C[C@@H](Oc4nc5ccccc5c5ccccc45)CN3C2=O)cn1 [Paritaprevir, paritaprevir, reference compound]"
  SYSTEM: "non-senescent control IMR90 ER:RAS cells"
  viability at 0.1 µM, %: 94.1
- MOLECULE: "Cc1cc2c(C(C)C)c(O)c(O)c(C=O)c2c(O)c1-c1c(C)cc2c(C(C)C)c(O)c(O)c(C=O)c2c1O"
  SYSTEM: "non-senescent control IMR90 ER:RAS cells"
  viability at 0.1 µM, %: 94.9

# map each molecule to its viability at 0.1 µM
1. O=c1c(O)c(-c2ccc(O)cc2O)oc2cc(O)cc(O)c12
2. Cc1c(-c2c(F)cc(C(N)=O)c3[nH]c4c(c23)CC[C@H](C(C)(C)O)C4)cccc1-n1c(=O)c2cccc(F)c2n(C)c1=O
3. CO[C@H]1C[C@@H]2CC[C@@H](C)[C@@](O)(O2)C(=O)C(=O)N2CCCC[C@H]2C(=O)O[C@H]([C@H](C)C[C@@H]2CC[C@H](n3cnnn3)[C@H](OC)C2)CC(=O)[C@H](C)/C=C(\C)[C@@H](O)[C@@H](OC)C(=O)[C@H](C)C[C@H](C)/C=C/C=C/C=C/1C [Zotarolimus, zotarolimus, reference compound]
4. CO[C@H]1C[C@@H]2CC[C@@H](C)[C@@](O)(O2)C(=O)C(=O)N2CCCC[C@H]2C(=O)O[C@H]([C@H](C)C[C@@H]2CC[C@@H](OCCO)[C@H](OC)C2)CC(=O)[C@H](C)/C=C(\C)[C@@H](O)[C@@H](OC)C(=O)[C@H](C)C[C@H](C)/C=C/C=C/C=C/1C [Everolimus, everolimus, reference compound]
5. COc1cc(/C=C/C(=O)O[C@H]2CC[C@]34C[C@]35CC[C@]3(C)[C@@H]([C@H](C)CCC=C(C)C)CC[C@@]3(C)[C@@H]5CC[C@H]4C2(C)C)ccc1O

Reply:
1. 91.9
2. 92.2
3. 98.7
4. 105
5. 103

Query: # query: viability at 0.1 µM of entry CO[C@H]1C[C@@H]2CC[C@@H](C)[C@@](O)(O2)C(=O)C(=O)N2CCCC[C@H]2C(=O)O[C@H]([C@H](C)C[C@@H]2CC[C@@H](OP(C)(C)=O)[C@H](OC)C2)CC(=O)[C@H](C)/C=C(\C)[C@@H](O)[C@@H](OC)C(=O)[C@H](C)C[C@H](C)/C=C/C=C/C=C/1C [Ridaforolimus, ridaforolimus, reference compound]
Reply: 97
